Form field: TGI (one value per entry).
System: A549 NSCLC
Protocol Notes: NCI tumour cell line growth inhibition, 48 h

# Compound, TGI
data = [
    ("O=c1ccc(=O)c2c1c1[nH]c3ccccc3c1c1c(=O)c3ccccc3c(=O)c21", "> 10 µM"),
    ("Cc1cccc(NC(=O)CSc2nnc(-c3ccc(N=Cc4ccc(Cl)cc4)cc3)o2)c1", "> 100 µM"),
    ("CC1(O)CC23CC(O)C4(O)C(CC(O)C4(C)C)C(C)(O)C2CCC1C3O (stereo not given)", "> 100 µM"),
    ("CCOC(=O)CSc1nc(-c2ccc(Cl)cc2)c(C#N)c(=O)[nH]1", "> 100 µM"),
    ("CC1=NN(c2cc(Cl)c(S(=O)(=O)O)cc2Cl)C2(C1)C(Cl)C(=O)N2c1nc2ccccc2s1 (stereo not given)", "> 100 µM"),
]

* * *

Test system: MDA-N
Protocol Notes: NCI tumour cell line growth inhibition, 48 h

# Compound, TGI
data = [
    ("COC1CCC(OS(C)(=O)=O)C(C)O1 (centres undefined)", "> 10 µM"),
    ("Nc1ccc2c3c1cccc3c(=O)n1c3ccc(Cc4ccc5c(c4)nc4c6ccc(N)c7cccc(c(=O)n54)c76)cc3nc21", "> 100 µM"),
    ("COC(=O)[C@]1(c2cc3ccccc3[nH]2)CC2CNC1C1OC(C)(C)OC21 (some centres undefined)", "> 100 µM"),
    ("COc1cc(COC(=O)N(C)[C@@H](Cc2ccccc2)C(=O)O)c([N+](=O)[O-])cc1OC", "> 100 µM"),
    ("COC1=C(OC)C(=O)C(Cc2c(-c3ccccc3)nc3sc(Cl)cn23)=C(C)C1=O", "34.2 µM"),
    ("Fc1nc(Sc2ncnc3nc[nH]c23)nc(-c2c3ccccc3c3sc4ccccc4n23)n1", "> 100 µM"),
    ("N#Cc1nc(-c2ccsc2)oc1N", "> 100 µM"),
    ("O=C(Nc1nnc(-c2ccccc2)o1)C(SC(=S)N1CCCC1)c1ccccc1 (centres undefined)", "> 100 µM"),
    ("C/C(=C\\C(=O)O)C(=O)N(C)c1ccccc1I", "> 100 µM"),
]

* * *

System: DU-145 prostate
Protocol Notes: NCI tumour cell line growth inhibition, 48 h

# Compound, TGI
data = [
    ("O=[N+]([O-])/C(=C/C=C/c1ccccc1)c1ccccc1", "3.22 µM"),
    ("N#Cc1nc(-c2ccsc2)oc1N", "> 100 µM"),
    ("Clc1ccc(C2=CC(c3ccccc3)N3C(=N[C@H]4CCCC[C@@H]43)N2)cc1 (stereo not given in full)", "20.7 µM"),
    ("C=C1CCC2C(C)(CO)C(O)CCC2(C)C1C/C=C1\\C(=O)OCC1O (stereo not given)", "> 100 µM"),
    ("CN1CCC(C(=O)Nc2n[nH]c3nnc(-c4ccccc4)cc23)CC1", "> 25 µM"),
    ("c1ccc(-c2nc3ccccc3[nH]2)c(OCCCCCOc2ccccc2-c2nc3ccccc3[nH]2)c1", "14.8 µM"),
    ("N#CC(c1cc(Cl)ncn1)c1nc2cc(C(F)(F)F)ccc2s1 (stereo not given)", "> 100 µM"),
    ("CC(C)(C)[C@H]1NC(=O)CN1C(=O)OCc1ccccc1", "> 100 µM"),
    ("CCOC(=O)/C=C(/OCC)[C@@H]1C(C(=O)c2ccc(Cl)cc2)[C@@H]1/C(=C\\C(=O)OCC)OCC (stereo not given in full)", "> 100 µM"),
    ("CC1CC(C)(C)CC(OCCN2CCCCC2)(c2ccccc2)C1 (stereo not given)", "19.8 µM"),
    ("CN(C)CC(=O)N1CCc2c([nH]c3ccccc23)C1c1cccnc1 (stereo not given)", "> 100 µM"),
    ("C/C(=C\\C(=O)O)C(=O)N(C)c1ccccc1I", "> 100 µM"),
    ("COc1cc(C2C3=C(NC(=O)C2C#N)c2ccc4ccccc4c2OCC3)cc(OC)c1OC (stereo not given)", "> 100 µM"),
    ("CC1OC23CCCCC2C(C#N)(C#N)C1(C#N)C(=N)O3 (stereo not given)", "66.5 µM"),
    ("COc1cc2c(cc1OC)C(Sc1ccc(Cl)cc1)c1c(nc(N)c(C#N)c1N)O2 (stereo not given)", "3.05 µM"),
    ("COc1ccc(-c2nn(-c3cccc(Cl)c3)cc2-c2c(C#N)c(=O)n3[nH]c(-c4ccc(C)o4)nc3c2C#N)cc1", "> 50 µM"),
    ("COc1cc2c(cc1OCCN1CCN(CCOc3cc4c(cc3OC)C(=O)N3CCC[C@H]3C=N4)CC1)N=C[C@@H]1CCCN1C2=O", "> 100 µM"),
    ("COC1CCC(OS(C)(=O)=O)C(C)O1 (stereo not given)", "> 10 µM"),
    ("COC(=O)c1sc(=S)c2sc(C(=O)OC)c(C(=O)OC)c2c1C(=O)OC", "> 100 µM"),
    ("CC1(O)CC23CC(O)C4(O)C(CC(O)C4(C)C)C(C)(O)C2CCC1C3O (stereo not given)", "> 100 µM"),
    ("COC(=O)c1sc2c(Cl)c(Cl)sc2c1Cl", "> 100 µM"),
    ("CC(=O)N1CN2C(=O)CCC2c2cc(C)ccc21 (stereo not given)", "> 100 µM"),
    ("COc1cc([N+](=O)[O-])c(S(=O)(=O)O)cc1-[n+]1nc(C(=O)Nc2ccccc2)nn1-c1ccc([N+](=O)[O-])c(S(=O)(=O)[O-])c1", "> 100 µM"),
    ("COC(=O)[C@]1(c2cc3ccccc3[nH]2)CC2CNC1C1OC(C)(C)OC21 (stereo not given in full)", "> 100 µM"),
    ("C=C(CCC(=O)N(CCc1c[nH]c2ccccc12)C(=O)c1ccccc1CSCC)C(=O)OC", "> 100 µM"),
]
